biological target: LNK SH2 domain (Mus musculus, UniProt O09039); construct: DNA encoding the mouse LNK SH2 domain (residues 324–446) and an N-terminal NusA; NusA (N, cleaved yes); made in house; host or cells: E. coli (tuner (DE3), BL21(DE3) or C43); experiment: SPR competition assay (immobilised IL6ST pY757 peptide); assay type: binding; details: phosphopeptide competition assay; mean of at least two technical replicates from two, three or four independent experiments; read-out: IC50
Sequence (O09039 324-446): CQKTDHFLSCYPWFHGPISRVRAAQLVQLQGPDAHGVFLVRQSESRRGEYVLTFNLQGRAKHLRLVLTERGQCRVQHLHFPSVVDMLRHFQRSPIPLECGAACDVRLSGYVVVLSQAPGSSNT
pIC50: −log10 of the molar value. Where a SMILES comes first, the peptide text is derived from it. [ ]: non-standard residue; d: D form. pY = N[C@@H](Cc1ccc(OP(=O)(O)O)cc1)C(=O)O
Property label: pIC50

Molecule	pIC50
C[C@@H](O)[C@H](NC(=O)[C@@H](N)CCC(=O)O)C(=O)N[C@@H](CC(=O)O)C(=O)N[C@@H](Cc1ccc(OP(=O)(O)O)cc1)C(=O)N[C@@H](Cc1ccc(OP(=O)(O)O)cc1)C(=O)N[C@@H](CCCNC(=N)N)C(=O)N[C@@H](CCCCN)C(=O)NCC(=O)NCC(=O)N[C@@H](CCCCN)C(=O)NCC(=O)O [IRK pY1445/pY1446] (H-ETD[pY][pY]RKGGKG-OH; N-terminus and C-terminus assumed)	< 5.00

Input line: Tell me pIC50 reported for CC(C)C[C@H](NC(=O)[C@@H]1CCCN1C(=O)[C@@H](N)CC(C)C)C(=O)N[C@@H](CO)C(=O)N[C@@H](Cc1ccc(OP(=O)(O)O)cc1)C(=O)N[C@@H](Cc1c[nH]c2ccccc12)C(=O)N[C@@H](CCC(N)=O)C(=O)N[C@@H](CCC(N)=O)C(=O)N1CCC[C@H]1C(=O)O [MPL pY631] (H-LPLS[pY]WQQP-OH; N-terminus and C-terminus assumed)
Output line: < 5.00

---

biological target: LNK SH2 domain (Mus musculus); construct: DNA encoding the mouse LNK SH2 domain (residues 324–446) and an N-terminal NusA; NusA (N, cleaved yes); made in house; host or cells: E. coli (tuner (DE3), BL21(DE3) or C43); assay: SPR competition assay (immobilised IL6ST pY757 peptide); type: binding; conditions: phosphopeptide competition assay; mean of at least two technical replicates from two, three or four independent experiments; read-out: IC50
pIC50: −log10 of the molar value. Where a SMILES comes first, the peptide text is derived from it. [ ]: non-standard residue; d: D form. pY = N[C@@H](Cc1ccc(OP(=O)(O)O)cc1)C(=O)O
Property label: pIC50

Molecule	pIC50
CC[C@H](C)[C@H](NC(=O)[C@H](Cc1ccc(O)cc1)NC(=O)[C@@H](NC(=O)[C@H](Cc1ccc(OP(=O)(O)O)cc1)NC(=O)[C@H](CC(N)=O)NC(=O)[C@H](CC(N)=O)NC(=O)CN)C(C)C)C(=O)N[C@@H](CC(=O)O)C(=O)N1CCC[C@H]1C(=O)O [c-KIT pY568] (H-GNN[pY]VYIDP-OH)	5.71

Parameters: items (list). Returns: pIC50 for each item.
1. CC[C@H](C)[C@H](NC(=O)[C@H](Cc1ccc(OP(=O)(O)O)cc1)NC(=O)[C@H](CCC(=O)O)NC(=O)[C@H](Cc1c[nH]cn1)NC(=O)CN)C(=O)N[C@@H](Cc1ccc(O)cc1)C(=O)N[C@H](C(=O)N[C@@H](CC(=O)O)C(=O)N1CCC[C@H]1C(=O)O)C(C)C [PDGFR pY572] (H-GHE[pY]IYVDP-OH)
2. CC(C)C[C@H](NC(=O)[C@H](CC(N)=O)NC(=O)[C@@H](NC(=O)[C@H](Cc1ccc(OP(=O)(O)O)cc1)NC(=O)[C@H](CC(=O)O)NC(=O)[C@H](CCCNC(=N)N)NC(=O)[C@@H](N)CCC(=O)O)[C@@H](C)O)C(=O)N1CCC[C@H]1C(=O)N[C@@H](CO)C(=O)O [c-FMS pY923] (H-ERD[pY]TNLPS-OH; N-terminus and C-terminus assumed)
3. NC(=O)C[C@H](NC(=O)[C@H](CCC(=O)O)NC(=O)[C@H](Cc1ccc(O)cc1)NC(=O)[C@@H]1CCCN1C(=O)[C@H](CC(N)=O)NC(=O)[C@H](CO)NC(=O)[C@H](Cc1ccc(OP(=O)(O)O)cc1)NC(=O)[C@@H]1CCCN1C(=O)CNC(=O)[C@H](CC(=O)O)NC(=O)[C@@H](N)CO)C(=O)N[C@@H](CO)C(=O)O [EPOR pY485] (H-SDGP[pY]SNPYENS-OH; N-terminus and C-terminus assumed)
4. CSCC[C@H](NC(=O)[C@H](CC(=O)O)NC(=O)[C@H](CCC(N)=O)NC(=O)[C@H](C)N)C(=O)N[C@@H](Cc1ccc(OP(=O)(O)O)cc1)C(=O)N[C@@H](CCCNC(=N)N)C(=O)N[C@@H](CCCNC(=N)N)C(=O)N[C@@H](CC(C)C)C(=O)N[C@@H](CCC(N)=O)C(=O)N1CCC[C@H]1C(=O)N[C@@H](CO)C(=O)N[C@@H](CS)C(=O)O [MPL pY591] (H-AQDM[pY]RRLQPSC-OH; N-terminus and C-terminus assumed)
5. CSCC[C@H](NC(=O)[C@H](CCC(N)=O)NC(=O)[C@H](CC(C)C)NC(=O)[C@H](CCC(N)=O)NC(=O)[C@H](CO)NC(=O)[C@H](CCC(=O)O)NC(=O)[C@H](Cc1ccc(OP(=O)(O)O)cc1)NC(=O)[C@H](CCCNC(=N)N)NC(=O)[C@H](Cc1ccccc1)NC(=O)[C@H](CCC(N)=O)NC(=O)[C@H](CCCCN)NC(=O)[C@H](CCCCN)NC(=O)[C@@H](N)Cc1ccc(O)cc1)C(=O)O [FLT3 pY572] (H-YKKQFR[pY]ESQLQM-OH; N-terminus and C-terminus assumed)

Output line:
1. 5.42
2. < 5.00
3. < 5.00
4. < 5.00
5. < 5.00

Input line: Output measured pIC50 for this item: CC[C@H](C)[C@H](NC(=O)[C@H](C)N)C(=O)N[C@@H](CCC(=O)O)C(=O)N[C@H](C(=O)N[C@@H](CC(=O)O)C(=O)N[C@@H](CCCCN)C(=O)N[C@@H](CCC(=O)O)C(=O)N[C@@H](Cc1ccc(OP(=O)(O)O)cc1)C(=O)N[C@@H](Cc1ccc(O)cc1)C(=O)N[C@@H](CCCCN)C(=O)N[C@H](C(=O)N[C@@H](CCCCN)C(=O)N[C@@H](CCC(=O)O)C(=O)N1CCC[C@H]1C(=O)NCC(=O)O)C(C)C)[C@@H](C)O [JAK2 pY1007] (H-AIETDKE[pY]YKVKEPG-OH; N-terminus and C-terminus assumed)
Output line: < 5.00
